The reported measurements were obtained from patent US20210380703A1.

Target: Mouse ACVR2A (mouse, UniProt P27038 20-135, limits assumed); further: test concentration or dose not given here
Sequence (P27038 20-135 limits assumed): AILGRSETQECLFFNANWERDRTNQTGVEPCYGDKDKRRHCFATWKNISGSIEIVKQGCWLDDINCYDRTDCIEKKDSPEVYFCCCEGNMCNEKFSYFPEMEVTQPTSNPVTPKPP
Assay: ELISA
TEST READOUT: optical density (OD)
Quick reminder: number only, in OD, skip the unit.

QUERY: // lookup optical density for 371_B01 (antibody, V domains shown, VH/VL only) VH: EVQLLESGGGLVQPGGSLRLSCAASGFTFDSYSMNWVRQAPGKGLEWVSNINYNSGYTGYADSVKGRFTISRDNSKNTLYLQMNSLRAEDTAVYYCARGATWHDTHLDYWGQGTLVTVSS VL: DIQMTQSPSSLSASVGDRVTITCRASQSILSYVNWYQQKPGKAPKLLIYAATSLASGVPSRFSGSGSGTDFTLTISSLQPEDFATYYCQQSYDLPLTFGGGTKVEIK
RESULT: 3.27

QUERY: For 370_C10 (antibody, V domains shown, VH/VL only) VH: EVQLLESGGGLVQPGGSLRLSCAASGFTFDSYSMNWVRQAPGKGLEWVSNINYNSGYKGYADSVKGRFTISRDNSKNTLYLQMNSLRAEDTAVYYCARGATWHDTHLDYWGQGTLVTVSS VL: DIQMTQSPSSLSASVGDRVTITCRASQSIVSYVNWYQQKPGKAPKLLIYATTSRASGVPSRFSGSGSGTDFTLTISSLQPEDFATYYCQQSYSSPLTFGGGTKVEIK then?
RESULT: 1.38

QUERY: For 365_E01 (antibody, V domains shown, VH/VL only) VH: EVQLLESGGGLVQPGGSLRLSCAASGFTFSDYSMNWVRQAPGKGLEWVSGINYNSGYKGYADSVKGRFTISRDNSKNTLYLQMNSLRAEDTAVYYCARSANWHDTALDYWGQGTLVTVSS VL: DIQMTQSPSSLSASVGDRVTITCRASQSIISYLNWYQQKPGKAPKLLIYAATSRASGVPSRFSGSGSGTDFTLTISSLQPEDFATYYCQQSYDSPLTFGGGTKVEIK then?
RESULT: 2.84
